- measurement_notes: iv (intravenous) PK
- Format: in vivo
- study_conditions: in vivo, iv; 2 mg/kg
property: AUC(0-inf)

{"molecule": "COc1cc(OC)c2c(c1)O[C@@]1(c3ccc(Cl)cc3)[C@H](c3ccccc3)C[C@@H](O)[C@@]21O [Compound C-1, reference compound]", "recorded_result": "0.9 µM·h"}
{"molecule": "COc1cc(OC)c2c(c1)O[C@@]1(c3ccc(C#N)cc3)[C@H](c3cccc(F)c3)C[C@@H](O)[C@@]21O (single isomer, unassigned) [Compound 1]", "recorded_result": "0.8 µM·h"}
{"molecule": "COc1cc(OC)c2c(c1)O[C@@]1(c3ccc(C#N)cc3)[C@H](c3ccccc3)C[C@@H](O)[C@@]21O (single isomer, unassigned) [Compound 2]", "recorded_result": "2.1 µM·h"}

* * *

- target: NRAS G12V (Homo sapiens, UniProt P01111, G12V)
- Construct: expressed in transfected cells; host or cells: HeLa
- Sequence (P01111 1-186 G12V limits assumed): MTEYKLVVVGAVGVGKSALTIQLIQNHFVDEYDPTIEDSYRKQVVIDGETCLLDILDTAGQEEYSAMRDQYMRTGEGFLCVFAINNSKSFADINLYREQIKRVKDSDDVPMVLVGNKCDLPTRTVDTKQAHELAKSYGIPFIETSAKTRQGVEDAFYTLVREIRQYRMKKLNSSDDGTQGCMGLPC
- measurement_notes: NanoBiT assay for RAS GTP-loading (LgBit-NRAS G12V / SmBit-CRAF-RBD) in HeLa cells
- Assay type: cell-based
- study_conditions: NanoBiT, HeLa cells, 2 h in serum-free DMEM; read-out: IC50 (nM) NRAS G12V
property: IC50 (nM)

{"molecule": "COc1cc(OC)c2c(c1)O[C@@]1(c3ccc(Cl)cc3)[C@H](c3ccccc3)C[C@@H](O)[C@@]21O [Compound C-1, reference compound]", "recorded_result": 61.4}

* * *

- System: sNF96.2
- measurement_notes: MTT assay for cell viability, sNF96.2
- Assay type: cell-based
- study_conditions: 48 h, mean from 3 independent experiments
Overview of recorded IC50 for various compounds
property: IC50 (nM)

{"compound": "COc1cc(OC)c2c(c1)O[C@@]1(c3ccc(Cl)cc3)[C@H](c3ccccc3)C[C@@H](O)[C@@]21O [Compound C-1, reference compound]", "unit_of_measurement": "nM", "recorded_result": 7.22}
{"compound": "COc1cc(OC)c2c(c1)O[C@@]1(c3ccc(C#N)cc3)[C@H](c3cccc(F)c3)C[C@@H](O)[C@@]21O (single isomer, unassigned)", "unit_of_measurement": "nM", "recorded_result": 3.69}

* * *

- target: KRAS G12V (Homo sapiens, UniProt P01116, G12V)
- Construct: expressed in transfected cells; host or cells: HeLa
- Sequence (P01116 1-186 isoform P01116-2 G12V limits assumed): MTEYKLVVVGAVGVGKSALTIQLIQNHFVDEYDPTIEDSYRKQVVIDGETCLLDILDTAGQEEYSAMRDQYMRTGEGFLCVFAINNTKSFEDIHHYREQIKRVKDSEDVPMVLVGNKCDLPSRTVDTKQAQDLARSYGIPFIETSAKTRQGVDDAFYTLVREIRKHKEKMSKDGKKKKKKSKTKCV
- measurement_notes: NanoBiT assay for RAS GTP-loading (LgBit-KRAS G12V / SmBit-CRAF-RBD) in HeLa cells
- Type: cell-based
- study_conditions: as listed in the PK tables 1-4; assay not named; read-out: IC50 (nM, KRAS G12V)
property: IC50 (nM)

{"molecule": "COc1cc(OC)c2c(c1)O[C@@]1(c3ccc(Cl)cc3)[C@H](c3ccccc3)C[C@@H](O)[C@@]21O [Compound C-1, reference compound]", "target": "KRAS G12V (Homo sapiens, UniProt P01116, G12V)", "property": "IC50", "recorded_result": 29}

* * *

- measurement_notes: oral PK
- Format: in vivo
- study_conditions: in vivo, 50 mg/kg

{"molecule": "COc1cc(OC)c2c(c1)O[C@@]1(c3ccc(C#N)cc3)[C@H](c3cccc(F)c3)C[C@@H](O)[C@@]21O (single isomer, unassigned)", "AUC(0-inf)": "14.6 µM·h"}
{"molecule": "COc1cc(OC)c2c(c1)O[C@@]1(c3ccc(Cl)cc3)[C@H](c3ccccc3)C[C@@H](O)[C@@]21O [Compound C-1, reference compound]", "AUC(0-inf)": "12.6 µM·h"}
